- Tested on: T1, Human BCMA (human, UniProt Q02223 1-54, limits assumed)
- T1 construct: also called huBCMA; B-cell maturation antigen
- T1 sequence (looked up): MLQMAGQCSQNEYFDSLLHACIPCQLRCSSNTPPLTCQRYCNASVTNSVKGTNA
- Assay text: SPR, IgG immobilised, human BCMA analyte
koff values, listed per item
State just the number; it will be interpreted in s⁻¹.

Example entries begin here.
[[record]]
binder = "COMBO_Rd4_0.6nM_C17 (antibody, V domains shown, IgG) VH: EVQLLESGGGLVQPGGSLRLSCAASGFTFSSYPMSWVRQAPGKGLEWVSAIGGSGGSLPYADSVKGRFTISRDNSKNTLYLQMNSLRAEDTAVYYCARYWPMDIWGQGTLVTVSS VL: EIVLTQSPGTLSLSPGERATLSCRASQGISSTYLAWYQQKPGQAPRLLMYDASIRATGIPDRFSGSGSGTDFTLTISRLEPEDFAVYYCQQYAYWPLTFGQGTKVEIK"
test_result = 0.000801

[[record]]
binder = "A02_Rd4_6nM_C19 (antibody, V domains shown, IgG) VH: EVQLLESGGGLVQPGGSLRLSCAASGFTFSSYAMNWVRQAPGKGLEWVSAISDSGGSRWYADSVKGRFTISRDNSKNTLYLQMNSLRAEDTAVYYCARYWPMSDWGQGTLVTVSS VL: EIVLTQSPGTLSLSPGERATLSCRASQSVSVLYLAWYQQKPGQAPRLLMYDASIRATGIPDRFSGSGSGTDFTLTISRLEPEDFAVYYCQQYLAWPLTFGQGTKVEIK"
test_result = 0.000148


Query binder follows.
Prompt: Name the reported koff value associated with the binder COMBO_Rd4_6nM_C08 (antibody, V domains shown, IgG) VH: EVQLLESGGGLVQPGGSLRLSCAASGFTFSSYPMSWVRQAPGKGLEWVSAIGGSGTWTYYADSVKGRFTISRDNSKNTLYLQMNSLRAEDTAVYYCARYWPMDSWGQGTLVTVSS VL: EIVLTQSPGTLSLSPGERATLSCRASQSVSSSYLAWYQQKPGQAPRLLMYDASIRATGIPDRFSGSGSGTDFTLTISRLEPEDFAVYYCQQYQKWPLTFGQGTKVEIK
Completion: 0.000169
